Test system: Yap1 mRNA
Assay: Dose-dependent inhibition of human Yap1 in A-431 cells (Example 6, 5,000 cells per well, RTS4814)
Assay type: cell-based
Details: Table 55; 1333 nM, free uptake, A-431 cells 5,000 cells per well, 48 hours, RTS4814
Strand notation (5' to 3'): a small letter for the sugar, then the base; units joined by * are phosphorothioate-linked, units joined directly phosphodiester-linked; [ ] holds rarer units or linkages, { } end groups; capitals alone tell only the bases. k = constrained ethyl (cEt); [5mC] = 5-methylcytosine; d = 2'-deoxy (DNA)

{"substance": "715478 (kA*k[5mC]*k[5mC]*dA*dT*dT*dA*dT*dT*dA*d[5mC]*dT*d[5mC]*k[5mC]*kT*kG; antisense) [compound 715478]", "Yap1 mRNA, % UTC": "32 % UTC"}
{"substance": "716480 (antisense kG*k[5mC]*kA*dA*dG*dT*d[5mC]*dT*dT*dG*dT*dA*dA*kG*kT*kA) [compound 716480]", "Yap1 mRNA, % UTC": "38 % UTC"}
{"substance": "716438 (antisense kA*kT*kT*dT*dT*dT*dG*dG*d[5mC]*dT*dT*dG*dT*k[5mC]*kA*kG) [compound 716438]", "Yap1 mRNA, % UTC": "62 % UTC"}
{"substance": "716554 (antisense kA*kT*kG*d[5mC]*dT*dT*dG*d[5mC]*dG*dA*dG*dG*dA*kT*kA*kA) [compound 716554]", "Yap1 mRNA, % UTC": "76 % UTC"}
{"substance": "716381 (kT*kG*kT*d[5mC]*dT*dG*dA*dT*d[5mC]*dG*dA*dT*dG*kT*kG*kA; antisense) [compound 716381]", "Yap1 mRNA, % UTC": "80 % UTC"}
{"substance": "716513 (antisense kA*kA*kT*d[5mC]*dT*dT*dA*dA*dT*d[5mC]*dT*dG*dT*kG*kG*k[5mC]) [compound 716513]", "Yap1 mRNA, % UTC": "39 % UTC"}

----------
Reported Yap1 mRNA, % UTC values for a set of substances
Tested on: Yap1 mRNA
Experiment: Dose-dependent inhibition of human Yap1 in A-431 cells (Example 8, 10,000 cells per well, RTS4814)
Format: cell-based
Conditions: 125.0 nM; A-431 cells, 10,000 cells per well, free uptake, approximately 48 hours, RTS4814
Strand notation (5' to 3'): a small letter for the sugar, then the base; units joined by * are phosphorothioate-linked, units joined directly phosphodiester-linked; [ ] holds rarer units or linkages, { } end groups; capitals alone tell only the bases. k = constrained ethyl (cEt); [5mC] = 5-methylcytosine; d = 2'-deoxy (DNA)

{"substance": "1074443 (kT*k[5mC]*kA*dG*dA*d[5mC]*d[5mC]*dA*dG*dT*dA*dA*dA*kT*k[5mC]*kA; antisense) [compound 1074443]", "Yap1 mRNA, % UTC [% UTC]": 35}
{"substance": "1074448 (kT*kA*kA*dT*dG*dA*dT*dA*dG*d[5mC]*dA*d[5mC]*dT*kA*kG*kG; antisense) [compound 1074448]", "Yap1 mRNA, % UTC [% UTC]": 13}
{"substance": "1076369 (antisense kT*kA*kT*dT*d[5mC]*dG*dG*dT*dA*dT*dT*dT*dT*k[5mC]*kT*kA) [compound 1076369]", "Yap1 mRNA, % UTC [% UTC]": 20}
{"substance": "1075842 (kG*kT*kA*dT*dT*dT*dA*dG*dG*dT*dA*d[5mC]*dT*k[5mC]*kA*kG; antisense) [compound 1075842]", "Yap1 mRNA, % UTC [% UTC]": 7}
{"substance": "1075041 (antisense kG*kA*kT*dT*dA*dT*dA*dA*dA*dG*dA*dG*dG*k[5mC]*kT*k[5mC]) [compound 1075041]", "Yap1 mRNA, % UTC [% UTC]": 31}
{"substance": "1074723 (antisense kG*kG*kT*dA*dA*dA*dG*dG*dA*dA*dG*dA*dT*k[5mC]*kT*k[5mC]) [compound 1074723]", "Yap1 mRNA, % UTC [% UTC]": 24}
{"substance": "1074795 (k[5mC]*k[5mC]*kA*dA*dA*dT*d[5mC]*dA*dA*dT*dG*dT*dG*k[5mC]*kT*k[5mC]; antisense) [compound 1074795]", "Yap1 mRNA, % UTC [% UTC]": 14}
{"substance": "1074593 (DNA kA*kG*kG*dA*dG*d[5mC]*dA*dA*dG*dT*d[5mC]*dT*dT*kG*kT*kA) [compound 1074593]", "Yap1 mRNA, % UTC [% UTC]": 20}
{"substance": "1074675 (antisense kA*kA*kA*dT*dT*dA*dT*dA*dG*dG*d[5mC]*dA*d[5mC]*kT*k[5mC]*k[5mC]) [compound 1074675]", "Yap1 mRNA, % UTC [% UTC]": 18}
{"substance": "1074762 (kG*k[5mC]*kT*dA*d[5mC]*d[5mC]*d[5mC]*dA*dA*dT*dA*d[5mC]*dA*kA*k[5mC]*k[5mC]; antisense) [compound 1074762]", "Yap1 mRNA, % UTC [% UTC]": 32}
{"substance": "1076004 (kT*kA*kA*dT*dT*dT*dA*dA*dT*dG*dG*d[5mC]*dT*kT*kG*k[5mC]; antisense) [compound 1076004]", "Yap1 mRNA, % UTC [% UTC]": 7}
{"substance": "1075055 (antisense k[5mC]*kT*kA*dT*dT*dA*dA*dG*dT*dG*dA*dG*d[5mC]*kT*kT*kT) [compound 1075055]", "Yap1 mRNA, % UTC [% UTC]": 20}
{"substance": "1074792 (kA*kT*k[5mC]*dA*dA*dT*dG*dT*dG*d[5mC]*dT*d[5mC]*d[5mC]*kA*kT*k[5mC]; antisense) [compound 1074792]", "Yap1 mRNA, % UTC [% UTC]": 17}
{"substance": "1076491 (kA*kG*k[5mC]*d[5mC]*dA*dA*dA*dA*dT*dA*dG*dG*dT*kG*kA*kG; antisense) [compound 1076491]", "Yap1 mRNA, % UTC [% UTC]": 45}
{"substance": "1074420 (kG*kA*kT*dT*d[5mC]*dT*dT*dT*dA*dG*dA*dG*d[5mC]*k[5mC]*kA*kA; antisense) [compound 1074420]", "Yap1 mRNA, % UTC [% UTC]": 8}
{"substance": "1075748 (kG*kT*kA*dA*dA*dT*d[5mC]*dA*dA*dG*dT*dT*dG*k[5mC]*kA*kT; antisense) [compound 1075748]", "Yap1 mRNA, % UTC [% UTC]": 36}
{"substance": "1074315 (antisense kG*kA*kT*dT*dG*dA*dT*dA*dT*dT*d[5mC]*d[5mC]*dG*k[5mC]*kA*kT) [compound 1074315]", "Yap1 mRNA, % UTC [% UTC]": 26}
{"substance": "1074794 (k[5mC]*kA*kA*dA*dT*d[5mC]*dA*dA*dT*dG*dT*dG*d[5mC]*kT*k[5mC]*k[5mC]; antisense) [compound 1074794]", "Yap1 mRNA, % UTC [% UTC]": 23}
{"substance": "1074852 (kA*kA*kT*dT*dG*dT*dT*dA*dT*dG*dA*dT*dA*kG*kG*k[5mC]; antisense) [compound 1074852]", "Yap1 mRNA, % UTC [% UTC]": 11}
{"substance": "1074672 (antisense k[5mC]*k[5mC]*kA*dA*dG*dT*dA*dG*d[5mC]*dT*dT*dT*dG*kA*kT*k[5mC]) [compound 1074672]", "Yap1 mRNA, % UTC [% UTC]": 18}
{"substance": "1076464 (k[5mC]*kA*kT*dA*dT*dA*d[5mC]*dA*dA*dT*dT*d[5mC]*dT*kG*k[5mC]*k[5mC]; antisense) [compound 1076464]", "Yap1 mRNA, % UTC [% UTC]": 10}
{"substance": "1074417 (kT*k[5mC]*kT*dT*dT*dA*dG*dA*dG*d[5mC]*d[5mC]*dA*dA*k[5mC]*kT*kG; antisense) [compound 1074417]", "Yap1 mRNA, % UTC [% UTC]": 26}
{"substance": "1076298 (kG*kT*kT*dA*dT*dA*dA*dA*dG*dA*d[5mC]*d[5mC]*d[5mC]*kA*kA*kT; antisense) [compound 1076298]", "Yap1 mRNA, % UTC [% UTC]": 58}
{"substance": "1074607 (DNA kA*kA*kG*dG*dT*dA*dT*dA*dA*dT*d[5mC]*dA*dT*kG*kA*kT) [compound 1074607]", "Yap1 mRNA, % UTC [% UTC]": 22}
{"substance": "1075048 (antisense kG*kT*kA*dA*dA*dA*dT*dT*dA*dG*dA*d[5mC]*dT*k[5mC]*k[5mC]*k[5mC]) [compound 1075048]", "Yap1 mRNA, % UTC [% UTC]": 42}
